B1: RAB11A (parent)
chain: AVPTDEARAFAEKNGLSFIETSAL

Variants of: B1
method description: protein stability index of a GFP-peptide fusion (GPS, HEK-293T) (PSI 1-6); higher = more stable;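 note: lentivirally expressed fusions sorted by FACS into six bins by GFP to DsRed ratio, PSI derived from sequencing read proportions per bin multiplied by bin number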
particulars: c terminus: a fixed tail appended
Quick rule: protein stability index of at least 2 means 1, below that means 0.

Some solved entries appear below for comparison.
I19D; 1
F10G; 1
P3F; 1
R8A; 1
D5S; 1

Check the entry D5Q : does protein stability index equal or exceed 2?
1

Evaluate N14I : protein stability index at minimum 2?
1

Reported protein stability index reaches at least 2 for R8E ?
1

Check if protein stability index >= 2 (inclusive). Item: L24R
1

Does the variant A7C have recorded protein stability index that is 2 or more?
0

Record E6D ; criterion: protein stability index no lower than 2. Met?
1
